Source: the supplement of paper PMC8967900

# Tested on: HAL-01
# runDescription: selective drug sensitivity score (sDSS, relative to normal bone marrow) (sDSS (score)); higher = more potent and effective on the cell line relative to normal bone marrow cells;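 also: ALL cell lines in 384-well plates, five doses spanning 10,000-fold, each plate scaled between vehicle and 100 µmol/L benzalkonium chloride controls, sDSS an adapted area-under-curve metric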
# experimentalContext: 72 h
Where selective drug sensitivity score equals or exceeds -0.04, the correct label is Criterion met; where it does not, the label is Criterion not met.

CCN(CC)C(=S)SSC(=S)N(CC)CC [Disulfiram(+CuCl2)] (top concentration 50000 nM) = Criterion met
COc1cccc2c1C(=O)c1c(O)c3c(c(O)c1C2=O)C[C@@](O)(C(=O)CO)C[C@@H]3O[C@H]1C[C@H](N)[C@H](O)[C@H](C)O1 [Doxorubicin] (top concentration 1000 nM) = Criterion met
CO[C@H]1C[C@@H]2CC[C@@H](C)[C@@](O)(O2)C(=O)C(=O)N2CCCC[C@H]2C(=O)O[C@H]([C@H](C)C[C@@H]2CC[C@@H](OP(C)(C)=O)[C@H](OC)C2)CC(=O)[C@H](C)/C=C(\C)[C@@H](O)[C@@H](OC)C(=O)[C@H](C)C[C@H](C)/C=C/C=C/C=C/1C [Ridaforolimus] (top concentration 100 nM) = Criterion not met

Continue with the next molecule.
In: Can O=C(c1cc(Cc2n[nH]c(=O)c3ccccc23)ccc1F)N1CCN(C(=O)C2CC2)CC1 [Olaparib] (top concentration 10000 nM) be said to have selective drug sensitivity score at or above -0.04?
Out: Criterion met

---

# Tested on: DND-41
# runDescription: selective drug sensitivity score (sDSS, relative to normal bone marrow) (sDSS (score)); higher = more potent and effective on the cell line relative to normal bone marrow cells
# experimentalContext: 72 h
assayMetric: selective drug sensitivity score
Keep it simple and answer with nothing but the number.

C=CC(=O)N1CCC[C@@H](n2nc(-c3ccc(Oc4ccccc4)cc3)c3c(N)ncnc32)C1 [Ibrutinib] (top concentration 1000 nM) = 0
Nc1ncnc2c1c(COc1cccc(Cl)c1)nn2C1CCOCC1 (top concentration 10000 nM) = -0.64
CC1(COc2ccc3c(c2)ncn3-c2ccc3cccc(N4CCC(N)CC4)c3n2)COC1 [Crenolanib] (top concentration 10000 nM) = 0.98
Cn1nnc2c(C(N)=O)ncn2c1=O [Temozolomide] (top concentration 100000 nM) = -0.04
N#CC(c1ccnc(OCc2ccc(CN3CCOCC3)cc2)n1)c1nc2ccccc2s1 (configuration not stated) [Bentamapimod] (top concentration 10000 nM) = 3.64
CNC(=O)c1nn(C)c2c1C(C)(C)Cc1cnc(Nc3ccc(N4CCN(C)CC4)cc3)nc1-2 [Milciclib] (top concentration 10000 nM) = 9.04

Continue with the compound presented below.
In: Give recorded selective drug sensitivity score. COc1cc2ncnc(Nc3cccc(Cl)c3F)c2cc1OC(=O)N1CCN(C)C[C@H]1C [AZD3759] (top concentration 1000 nM)
Out: -0.04

---

# Test system: MOLT-4
# runDescription: selective drug sensitivity score (sDSS, relative to normal bone marrow) (sDSS (score)); higher = more potent and effective on the cell line relative to normal bone marrow cells
# experimentalContext: 72 h
Where selective drug sensitivity score equals or exceeds 0, the correct label is true (1); where it does not, the label is false (0).

In: Can CCC(C)(C)C(=O)O[C@H]1C[C@@H](C)C=C2C=C[C@H](C)[C@H](CC[C@@H]3C[C@@H](O)CC(=O)O3)[C@H]21 [Simvastatin] (top concentration 10000 nM) be said to have selective drug sensitivity score at or above 0?
Out: false (0)

In: Can CO[C@H]1C[C@@H]2CC[C@@H](C)[C@@](O)(O2)C(=O)C(=O)N2CCCC[C@H]2C(=O)O[C@H]([C@H](C)C[C@@H]2CC[C@@H](OC(=O)C(C)(CO)CO)[C@H](OC)C2)CC(=O)[C@H](C)/C=C(\C)[C@@H](O)[C@@H](OC)C(=O)[C@H](C)C[C@H](C)/C=C/C=C/C=C/1C [Temsirolimus] (top concentration 100 nM) be said to have selective drug sensitivity score at or above 0?
Out: false (0)

In: Can Cc1c(C(=O)Nc2ccc(N3C[C@@H](C)O[C@@H](C)C3)nc2)cccc1-c1ccc(OC(F)(F)F)cc1 [Sonidegib] (top concentration 10000 nM) be said to have selective drug sensitivity score at or above 0?
Out: true (1)

In: Can COCCOc1cnc2ccn([C@H](C)c3nnc4c(F)cc(-c5cnn(C)c5)cn34)c(=O)c2c1 [AMG-337] (top concentration 10000 nM) be said to have selective drug sensitivity score at or above 0?
Out: false (0)

In: Can NC(=O)c1cccc(-c2cccc(OC(=O)NC3CCCCC3)c2)c1 [URB597] (top concentration 1000 nM) be said to have selective drug sensitivity score at or above 0?
Out: false (0)

---

# Tested on: ALL-SIL
# runDescription: selective drug sensitivity score (sDSS, relative to normal bone marrow) (sDSS (score)); higher = more potent and effective on the cell line relative to normal bone marrow cells
# experimentalContext: 72 h
Where selective drug sensitivity score equals or exceeds -2, the correct label is Y; where it does not, the label is N.

Solved entries:
CCc1nc(C(N)=O)c(Nc2ccc(N3CCC(N4CCN(C)CC4)CC3)c(OC)c2)nc1NC1CCOCC1 [Gilteritinib] (top concentration 1000 nM) = N
Nc1ncnc2c1nc(Cl)n2[C@@H]1O[C@H](CO)[C@@H](O)[C@H]1O [8-chloro-adenosine] (top concentration 50000 nM) = N

In: Can CCN1C(=O)CNc2ncc(-c3ccc(-c4nc[nH]n4)nc3C)nc21 [CC-115] (top concentration 10000 nM) be said to have selective drug sensitivity score at or above -2?
Out: Y

In: Can Cc1ncc(-c2ccnc(Nc3ccc(S(C)(=O)=O)cc3)n2)n1C(C)C [AZD-5438] (top concentration 10000 nM) be said to have selective drug sensitivity score at or above -2?
Out: N

In: Can C=C1C[C@@H]2[C@H](CC[C@]3(C)C(=O)CC[C@@H]23)[C@@]2(C)C=CC(=O)C=C12 [Exemestane] (top concentration 10000 nM) be said to have selective drug sensitivity score at or above -2?
Out: Y

In: Can CC(C)Oc1ccc(C(=O)N[C@H](CNC(=O)CN(C)C)Cc2ccc(-c3cn4cccc([C@H](C)O)c4n3)cc2)cc1Cl (top concentration 10000 nM) be said to have selective drug sensitivity score at or above -2?
Out: Y

---

# System: ALL-SIL
# runDescription: selective drug sensitivity score (sDSS, relative to normal bone marrow) (sDSS (score)); higher = more potent and effective on the cell line relative to normal bone marrow cells
# experimentalContext: 72 h
Where selective drug sensitivity score equals or exceeds 0, the correct label is True; where it does not, the label is False.

Cc1c(F)cc(C(=O)NC2CC2)cc1-c1ccc(C(=O)NCC(C)(C)C)cn1 [Losmapimod] (top concentration 10000 nM) = False
Oc1ccc2c(c1)CC[C@H](c1ccccc1)[C@@H]2c1ccc(OCCN2CCCC2)cc1 [Lasofoxifene] (top concentration 1000 nM) = False
Nc1nc(N)c2nc(-c3cccc(O)c3)c(-c3cccc(O)c3)nc2n1 [TG100-115] (top concentration 10000 nM) = True
Cc1cc(OCc2nnc(SC3CCCC3)n2-c2cccnc2)ccc1-c1ccc(S(C)(=O)=O)cc1 [NMS-873] (top concentration 10000 nM) = True
COc1cccc(-c2ccc(NC(=O)C3=C(C(=O)O)CCC3)c(F)c2)c1 [Vidofludimus] (top concentration 10000 nM) = True
O=C(O)CNC(=O)c1c(O)c2ccccc2n(Cc2ccccc2)c1=O [IOX-2] (top concentration 50000 nM) = False
CC(C)C[C@H](NC(=O)CNC(=O)c1cc(Cl)ccc1Cl)B(O)O [Ixazomib] (top concentration 1000 nM) = True
Cc1cc(Nc2ncc(Cl)c(Nc3ccccc3S(=O)(=O)C(C)C)n2)c(OC(C)C)cc1C1CCNCC1 [Ceritinib] (top concentration 2500 nM) = True

In: Can COc1cc(N2CCC(N3CCN(C)CC3)CC2)ccc1Nc1ncc(Cl)c(Nc2ccccc2P(C)(C)=O)n1 [Brigatinib] (top concentration 1000 nM) be said to have selective drug sensitivity score at or above 0?
Out: False

In: Can C[C@@H](Oc1ccc2[nH]nc(/C=C/c3cnn(CCO)c3)c2c1)c1c(Cl)cncc1Cl (top concentration 1000 nM) be said to have selective drug sensitivity score at or above 0?
Out: True

In: Can COc1cccc2c1C(=O)c1c(O)c3c(c(O)c1C2=O)C[C@@](O)(C(C)=O)C[C@@H]3O[C@H]1C[C@H](N)[C@H](O)[C@H](C)O1 [Daunorubicin] (top concentration 1000 nM) be said to have selective drug sensitivity score at or above 0?
Out: True

---

# Test system: NALM-16
# runDescription: selective drug sensitivity score (sDSS, relative to normal bone marrow) (sDSS (score)); higher = more potent and effective on the cell line relative to normal bone marrow cells
# experimentalContext: 72 h
assayMetric: selective drug sensitivity score

Check out these entries, answers already filled in.
CC[C@H](C)C(=O)O[C@H]1C[C@H](O)C=C2C=C[C@H](C)[C@H](CC[C@@H](O)C[C@@H](O)CC(=O)O)[C@H]21 [Pravastatin] (top concentration 10000 nM) = -0.66
COc1cc([C@@H]2c3cc4c(cc3[C@@H](O[C@@H]3O[C@@H]5CO[C@@H](c6cccs6)O[C@H]5[C@H](O)[C@H]3O)[C@H]3COC(=O)[C@H]23)OCO4)cc(OC)c1O [Teniposide] (top concentration 10000 nM) = 0

In: Give recorded selective drug sensitivity score. Cc1ccc(C(=O)Nc2ccc(Oc3cc4cnn(C)c4cc3-c3cn[nH]c3)c(F)c2)c(=O)n1-c1ccc(F)cc1 [Merestinib] (top concentration 1000 nM)
Out: 2.58
